These data points were gathered from ChEMBL document CHEMBL1777694.

biological target: Glutamate NMDA receptor; experiment: Displacement of [3H]MDL105519 from NMDA receptor glycine site in rat brain homogenate
result_type: IC50

Examples with answers:
Data request: Fill in: IC50 of C=Cc1ccc2c(=O)n(NS(C)(=O)=O)c(=O)[nH]c2c1 is ___
Data returned: > 10 µM

Data request: Fill in: IC50 of CS(=O)(=O)Nn1c(=O)[nH]c2cc(C(F)(F)F)ccc2c1=O is ___
Data returned: 17.8 µM

Data request: Fill in: IC50 of CS(=O)(=O)Nn1c(=O)[nH]c2cc(S(C)(=O)=O)ccc2c1=O is ___
Data returned: > 100 µM

Data request: Fill in: IC50 of O=c1[nH]c2cc(Cl)ccc2c(=O)n1NS(=O)(=O)Cc1ccccc1 is ___
Data returned: 0.21 µM

Data request: Fill in: IC50 of CCS(=O)(=O)Nn1c(=O)[nH]c2cc(Cl)ccc2c1=O is ___
Data returned: 35 µM

Data request: Fill in: IC50 of CC(C)(C)c1ccc2c(=O)n(NS(C)(=O)=O)c(=O)[nH]c2c1 is ___
Data returned: > 100 µM

***
Data request: Fill in: IC50 of CS(=O)(=O)Nn1c(=O)[nH]c2cc(Cl)c(-n3ccnc3)cc2c1=O is ___
Data returned: 17.2 µM

Data request: Fill in: IC50 of O=c1[nH]c2cc(Cl)ccc2c(=O)n1NS(=O)(=O)c1ccccc1 is ___
Data returned: 9.3 µM

====

tested on: Mus musculus; experiment: Anticonvulsant activity in po dosed OF1 mouse assessed as inhibition of electroshock-induced seizures administered 1 hr before electroshock challenge; type: functional
result_type: ED50

Data request: Fill in: ED50 of CC(C)(C)c1ccc2c(=O)n(NS(C)(=O)=O)c(=O)[nH]c2c1 is ___
Data returned: 29.5 mg/kg

***
Data request: Fill in: ED50 of CS(=O)(=O)Nn1c(=O)[nH]c2cc(Cl)ccc2c1=O is ___
Data returned: 23 mg/kg

Data request: Fill in: ED50 of CS(=O)(=O)Nn1c(=O)[nH]c2cc(C(F)(F)F)ccc2c1=O is ___
Data returned: 54 mg/kg

Data request: Fill in: ED50 of Cc1ccc2c(=O)n(NS(C)(=O)=O)c(=O)[nH]c2c1 is ___
Data returned: 9 mg/kg

Data request: Fill in: ED50 of CCc1ccc2c(=O)n(NS(C)(=O)=O)c(=O)[nH]c2c1 is ___
Data returned: 16 mg/kg

====

assay: Dissociation constant, pKa of the compound; assay type: physicochemical
result_type: pKa
Give the figure by itself; no unit, no explanation.

Data request: Fill in: pKa of CS(=O)(=O)Nn1c(=O)[nH]c2cc(Cl)ccc2c1=O is ___
Data returned: 6.9

====

molecular target: Glutamate NMDA receptor (Rattus norvegicus) (UniProt P35439+Q00959+Q00960+Q00961+Q62645+Q8VHN2+Q9R1M7); experiment: Inhibition of NMDA receptor glycine site in rat brain homogenate at 10 uM; type: tissue-based
# class assignment by measured inhibition: lower level: < 20%; middle level: ≥ 20% and < 30%; upper level: ≥ 30%

Solved cases below.
Data request: Into which bin does this compound go? CS(=O)(=O)Nn1c(=O)[nH]c2cc(CCc3ccccc3)ccc2c1=O
Data returned: middle level

Data request: Into which bin does this compound go? CS(=O)(=O)Nn1c(=O)[nH]c2cc([N+](=O)[O-])ccc2c1=O
Data returned: lower level

Data request: Into which bin does this compound go? CS(=O)(=O)Nn1c(=O)[nH]c2cc(C#N)ccc2c1=O
Data returned: middle level

Data request: Into which bin does this compound go? CS(=O)(=O)Nn1c(=O)[nH]c2cc(C(F)(F)F)ccc2c1=O
Data returned: lower level

Data request: Into which bin does this compound go? Cc1ccc2c(=O)n(NS(C)(=O)=O)c(=O)[nH]c2c1
Data returned: lower level

Data request: Into which bin does this compound go? CS(=O)(=O)Nn1c(=O)[nH]c2cc(F)ccc2c1=O
Data returned: lower level

Data request: Into which bin does this compound go? CS(=O)(=O)Nn1c(=O)[nH]c2cc(Cl)ccc2c1=O
Data returned: upper level

Data request: Into which bin does this compound go? CS(=O)(=O)Nn1c(=O)[nH]c2cc(Br)ccc2c1=O
Data returned: upper level

Data request: Into which bin does this compound go? COc1ccc2c(=O)n(NS(C)(=O)=O)c(=O)[nH]c2c1
Data returned: middle level

Please find the next compound below.
Data request: Into which bin does this compound go? CS(=O)(=O)Nn1c(=O)[nH]c2cc([N+](=O)[O-])c(-n3ccnc3)cc2c1=O
Data returned: middle level
